tested on: RPMI-7951 (Melanoma); experiment: Bliss excess, mean over the matrix (fraction); higher = more synergy;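 also: after 72 h of two-drug dosing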
measure: Bliss excess

molecule	target	measure	measurement
C[C@@H](c1ccc2nccn2c1)n1nnc2ncc(-c3cnn(C)c3)nc21 [Savolitinib] + CN(CC[C@H](CSC1=CC=CC=C1)NC2=C(C=C(C=C2)S(=O)(=O)NC(=O)C3=CC=C(C=C3)N4CCC(CC4)[C@H](C5=CC=CC=C5C6=CC=C(C=C6)Cl)O)S(=O)(=O)C(F)(F)F)CCO [AZD4320] (first compound max 1 µM, 7x7, partner max 1 µM)	RPMI-7951 (Melanoma)	Bliss excess	-0.0203
Cc1c2c(nn1C)CSCc1cc(n(C)n1)CSc1cc(c3ccccc3c1)OCCCc1c(C(=O)O)n(C)c3c-2c(Cl)ccc13 [AZD5991] + CCN(CCO)CCCOc1ccc2c(Nc3cc(CC(=O)Nc4cccc(F)c4)[nH]n3)ncnc2c1 [AZD2811] (first compound max 1 µM, 7x7, partner max 1 µM)	RPMI-7951 (Melanoma)	Bliss excess	-0.0924
